- Tested on: GRK1
- conditions.used: concentration: 1 μM,replicates: in singlicate; n = 1;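 note: KINOMEscan kinase panel screen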
measurement.kind: %Inh (%)
One number for each entry, in %.

The cases that follow already have their %Inh on record.
Recorded %Inh of Cc1nnc(-c2ccc3occ(-c4ccc(S(C)=O)cc4)c3n2)o1 (centres unmarked) , please.
0

Recorded %Inh of COc1cc2c(Nc3ccc(NC(=O)c4ccccc4)cc3)ncnc2cc1OCCCN1CCOCC1 , please.
10

Recorded %Inh of CS(=O)c1ccc(-c2coc3ccc(-c4n[nH]c(=O)o4)cc23)cc1 (centres unmarked) , please.
6

Recorded %Inh of Cl.c1ccc(Oc2ccc(Nc3ccnc4cc(-c5ccc(CN6CCNCC6)o5)ccc34)cc2)nc1 , please.
0

Recorded %Inh of CC(C(=O)NC1CCN(c2ccnc(Nc3ccc(F)cc3)n2)C1)c1ccc(Cl)cc1 (centres unmarked) , please.
0

// batch mode: one %Inh value per listed entry
1. Cl.Cl.NC[C@H](CC1CCCCC1)NC(=O)c1ccc(-c2ccnc3[nH]ccc23)s1
2. CN1CCN(CCNc2nc3cc(Oc4ccc(NC(=O)Nc5cc(C(F)(F)F)ccc5F)cc4)ccc3[nH]2)CC1.Cl.Cl
3. Cc1cccc2c(-c3ccncc3)c(-c3ccc(F)cc3)nn12.Cl

93.6
0
0

---

- Tested on: WNK2
- conditions.used: concentration: 1 μM,replicates: in singlicate; n = 1
measurement.kind: %Inh (%)
One number for each entry, in %.

The cases that follow already have their %Inh on record.
Recorded %Inh of Cl.Nc1n[nH]c2cc(-c3ccccn3)ccc12 , please.
5

Recorded %Inh of Cc1nnc(-c2ccc3occ(-c4ccc(S(C)=O)cc4)c3n2)o1 (centres unmarked) , please.
0

Recorded %Inh of COc1cc2ncn(-c3cc(OCC4CCCCC4)c(C(N)=O)s3)c2cc1OC , please.
0

Recorded %Inh of COC(=O)Nc1nc2cc(Oc3ccc(NC(=O)Nc4cc(C(F)(F)F)ccc4Cl)cc3)ccc2[nH]1.Cl , please.
11

For the next question, use this molecule.
Recorded %Inh of c1ccc(Oc2ccc(Nc3ccnc4ccc(-c5ccccn5)cc34)cc2)cc1 , please.
25

---

- Tested on: NIK
- Construct: gene MAP3K14
- conditions.used: concentration: 1 μM,replicates: in singlicate; n = 1
measurement.kind: %Inh (%)
One number for each entry, in %.

Recorded %Inh of Cc1ccc(Nc2ccnc(Nc3ccc4c(c3)CS(=O)(=O)C4)n2)cc1O.Cl , please.
27

// batch mode: one %Inh value per listed entry
1. CN1CCN(CCCNc2nccc(-c3c(-c4ccc(F)cc4)nn4cc(C(N)=O)ccc34)n2)CC1
2. NC(=O)c1ccc(-c2cc3ncnc(SCC(=O)O)c3s2)cc1
3. O=c1[nH]cc(-c2ccc(O)cc2)c2sc(-c3ccncc3)cc12
4. CS(=O)(=O)Nc1ccc(-c2ccnc3[nH]ccc23)cc1
5. N#Cc1cccc(C(=O)NC2CCN(c3ccnc(Nc4ccc(F)cc4)n3)C2)c1 (stereo not shown)
6. Cc1ccc(C(=O)Nc2ccc(Oc3ccc4nc(NC(=O)C5CC5)cn4c3)c(F)c2)c(=O)n1-c1ccccc1

[5, 0, 0, 22, 13, 0]

---

- System: EPHB3
- conditions.used: concentration: 1 μM,replicates: in singlicate; n = 1
measurement.kind: %Inh (%)
Give bare numbers, in %.

The cases that follow already have their %Inh on record.
Recorded %Inh of OCCn1cc(-c2cnc3nnn(Cc4ccc5ncccc5c4)c3n2)cn1 , please.
0

Recorded %Inh of C[C@@H]1CNc2c(sc3ccc4nc(-c5ccc(O)cc5)ccc4c23)C(=O)N1 , please.
0

Recorded %Inh of Cn1cc(-c2cccc3c(N)c(C(N)=O)nnc23)cn1 , please.
11

Recorded %Inh of COc1cccc(CNC(=O)NC2CCN(c3ccnc(Nc4cc(OC)c(OC)c(OC)c4)n3)C2)c1 (stereo not drawn) [GSK1379765] , please.
20

Recorded %Inh of CS(=O)c1ccc(-c2coc3ccc(-c4n[nH]c(=O)o4)cc23)cc1 (stereo not drawn) , please.
0

// batch mode: one %Inh value per listed entry
1. CS(=O)(=O)c1cccc(CNc2nc(Nc3ccc4c(c3)[C@@H]3C[C@@H]4CNC3=O)ncc2C(F)(F)F)c1
2. Cc1ccc(C(=O)Nc2ccc(Oc3ccc4nc(NC(=O)C5CC5)cn4c3)c(F)c2)c(=O)n1-c1ccccc1
3. O=C(Nc1ccccc1)c1cccc(Oc2ccc3nccn3n2)c1
4. Cn1ccc2ncnc(Oc3ccc(NC(=O)Nc4cccc(C(F)(F)F)c4)c(F)c3)c21
5. c1ccc(Oc2ccc(Nc3ccnc4ccc(-c5ccccn5)cc34)cc2)cc1 [GW407034]

[5, 11, 0, 74, 1]

// batch mode: one %Inh value per listed entry
1. NC(=O)Nc1sc(-c2ccc(F)cc2)cc1C(N)=O [GW789449]
2. Cn1ccc2ncnc(Oc3ccc(NC(=O)Nc4cncc(C(F)(F)F)c4)c(Cl)c3)c21
3. O=C(Nc1n[nH]c2cc(-c3ccco3)ccc12)C1CC1 [SB-737447]

14
37
6

// batch mode: one %Inh value per listed entry
1. FC(F)(F)c1cc(Br)cc(Nc2nccc(-c3cnn4ncccc34)n2)c1 [GW810578]
2. O=C(Nc1ccc(Oc2ccc3nc(NC(=O)C4CC4)cn3n2)c(F)c1)c1cccn(-c2ccccc2)c1=O
3. Cc1n[nH]c2cc(Nc3ccnc(Nc4cccc(CN5CCOCC5)c4)n3)ccc12 [GW682569]
4. Cl.Nc1n[nH]c2cc(-c3ccccn3)ccc12 [GSK2189892]

1: 17; 2: 6; 3: 12; 4: 4

Recorded %Inh of C[C@@H](Oc1cc(-n2cnc3ccc(-c4ccncc4)cc32)sc1C(N)=O)c1ccccc1Cl [GSK483724] , please.
9

---

- Test system: EGFR
- conditions.used: concentration: 1 μM,replicates: in singlicate; n = 1
Would you mind telling me the reported %Inh of each entry?
One number for each entry, in %.

GET /values?readout=%Inh&system=EGFR&item= FC(F)(F)c1cc(Br)cc(Nc2nccc(-c3cnn4ncccc34)n2)c1
16

GET /values?readout=%Inh&system=EGFR&item= CN1CCN(CCNc2nc3cc(Oc4ccc(NC(=O)Nc5cc(C(F)(F)F)ccc5F)cc4)ccc3[nH]2)CC1.Cl.Cl
0

GET /values?readout=%Inh&system=EGFR&item= CC(C)c1nc(-c2cccc(NS(=O)(=O)c3ccccc3)c2)c(-c2ccnc(Nc3ccc4c(c3)CN(C)CC4)n2)s1
84

GET /values?readout=%Inh&system=EGFR&item= Cc1ccn2nc(-c3ccc(F)cc3)c(-c3ccncc3)c2c1.Cl
49

GET /values?readout=%Inh&system=EGFR&item= Cl.Cl.NC[C@H](CC1CCCCC1)NC(=O)c1ccc(-c2ccnc3[nH]ccc23)s1
28

// batch mode: one %Inh value per listed entry
1. COc1cccc(CNC(=O)NC2CCN(c3ccnc(Nc4cc(OC)c(OC)c(OC)c4)n3)C2)c1 (stereo not drawn)
2. Cn1ccc2ncnc(Oc3ccc(NC(=O)Nc4cncc(C(F)(F)F)c4)c(Cl)c3)c21
3. O=C(Nc1cccc(C(F)(F)F)c1)c1cccc(Oc2ccc3nccn3n2)c1

1. 28
2. 0
3. 13

GET /values?readout=%Inh&system=EGFR&item= Cc1cccc(-c2nc(Nc3ccncc3)c3sccc3n2)n1
16

---

Would you mind telling me the reported %Inh of each entry?
- System: CDC2L2
- conditions.used: concentration: 1 μM,replicates: in singlicate; n = 1
Answer with the figure and its unit, nothing else.

The cases that follow already have their %Inh on record.
Recorded %Inh of O=C(Nc1cccc(C(F)(F)F)c1)c1cccc(Oc2ccc3nccn3n2)c1 , please.
3%

Recorded %Inh of CC(=O)Nc1ccc(-c2cc3ncnc(SCC(=O)O)c3s2)cc1 , please.
17%

Recorded %Inh of Cl.c1ccc(Oc2ccc(Nc3ccnc4cc(-c5ccc(CN6CCNCC6)o5)ccc34)cc2)nc1 , please.
16%

// batch mode: one %Inh value per listed entry
1. CCn1c(-c2nonc2N)nc2cncc(CNC3CCNCC3)c21.Cl
2. O=C1NCCc2[nH]c(-c3ccncc3)cc21
3. CS(=O)(=O)c1cccc(CNc2nc(Nc3ccc4c(c3)[C@@H]3C[C@@H]4CNC3=O)ncc2C(F)(F)F)c1
4. O=C(Nc1ccc(Oc2ccc3nc(NC(=O)C4CC4)cn3n2)c(F)c1)c1cccn(-c2ccccc2)c1=O
5. Cc1ccn2nc(-c3ccc(F)cc3)c(-c3ccncc3)c2c1.Cl
6. COc1cccc(CNC(=O)NC2CCN(c3ccnc(Nc4cc(OC)c(OC)c(OC)c4)n3)C2)c1 (stereo not drawn)
7. Cc1cccc(-c2nc(Nc3ccncc3)c3sccc3n2)n1
8. COc1cc2nccc(Nc3ccc(Oc4ccccc4)cc3)c2cc1OC.Cl

1. 0%
2. 0%
3. 0%
4. 6%
5. 24%
6. 25%
7. 0%
8. 28%

// batch mode: one %Inh value per listed entry
1. COc1cccc(C2=C(Nc3cccc(Cl)c3)C(=O)NC2=O)c1
2. C[C@@H](Oc1cc(-n2cnc3ccc(-c4ccncc4)cc32)sc1C(N)=O)c1ccccc1Cl
3. CS(=O)(=O)Nc1ccc(-c2ccnc3[nH]ccc23)cc1
4. COc1cc2ncn(-c3cc(OCC4CCCCC4)c(C(N)=O)s3)c2cc1OC

["0%", "7%", "0%", "6%"]

src = paper PMC5540273
